system: SN12C renal; assay: NCI tumour cell line growth inhibition, 48 h; in the data active means GI50 below about 0.43 µM; inactive means the rest
The reply should name one outcome from active, inactive

O=C(NC(=S)Nc1ccc(-c2nc3ccccc3[nH]2)cc1)c1ccc2ccccc2c1 = inactive
NS(=O)(=O)c1ccc(N=Nc2c(O)[nH]c3cccc(CCc4ccncc4)c23)cc1 = inactive
O=C1/C(=C\c2ccc(Cl)cc2)CN(C(=O)c2ccccc2)C/C1=C\c1ccc(Cl)cc1 = inactive

Exam item: Kindly provide the recorded test outcome for the following compound: O=C(CSc1nc2ccc([N+](=O)[O-])cc2[nH]1)Nc1ccc([N+](=O)[O-])cc1
Marked response: inactive

Exam item: Kindly provide the recorded test outcome for the following compound: CC[C@@]1(O)C(=O)OCc2c1cc1n(c2=O)Cc2cc3c(OC)cccc3nc2-1
Marked response: active
